The origin of these recorded values is patent US9102648B1.

system under test: GAL4 DBD (1-147)-CfEcR(DEF)/VP16AD-βRXREF-LmUSPEF (Choristoneura fumiferana)
assay comment: cell-based
condition parameters: maximum fold induction at any concentration relative to that of GS-E ligand; CHO 27-63 cells
Protocol: GAL4 DBD (1-147)-CfEcR(DEF)/VP16AD-βRXREF-LmUSPEF: […] Luciferase reporter gene expression was measured 48 h after cell treatment using Bright-Glo™ Luciferase Assay System from Promega (E2650). Luminescence was detected at room temperature using a Dynex MLX microtiter plate luminometer. Each assay was conducted in two separate wells, and the two values were averaged. Fold inductions were calculated by dividing relative light units (“RLU”) in ligand treated cells with RLU in DMSO treated cells. […]
Would you kindly list 27-63 assay Rel Max FI for each of these compounds?

Which 27-63 assay Rel Max FI is listed for COc1cccc(C(=O)NN(C(=O)c2cc(C)cc(Br)c2)C(C)(C)C)c1C [RG-101353] ?
1.168

Please give the result for Cc1c(C(=O)NN(C(=O)c2ccc(F)c(F)c2)C(C)(C)C)ccc2c1CCCO2 [RG-115416] too.
0.721

Please give the result for CCc1ccc(C(=O)NN(C(=O)c2cc(OC)c(C)c(OC)c2)C(c2ccccc2)C(C)(C)C)cc1 (racemic) [RG-115847] too.
1.120

Please give the result for CCc1c(OC)cccc1C(=O)NN(C(=O)c1ccc2c(c1)OCO2)C(C)(C)C [RG-100699] too.
0.939

* * *

system under test: Bombyx mori EcR (VP16 fusion, CVBE switch construct) (Bombyx mori, UniProt P49881)
Sequence (P49881 86-606): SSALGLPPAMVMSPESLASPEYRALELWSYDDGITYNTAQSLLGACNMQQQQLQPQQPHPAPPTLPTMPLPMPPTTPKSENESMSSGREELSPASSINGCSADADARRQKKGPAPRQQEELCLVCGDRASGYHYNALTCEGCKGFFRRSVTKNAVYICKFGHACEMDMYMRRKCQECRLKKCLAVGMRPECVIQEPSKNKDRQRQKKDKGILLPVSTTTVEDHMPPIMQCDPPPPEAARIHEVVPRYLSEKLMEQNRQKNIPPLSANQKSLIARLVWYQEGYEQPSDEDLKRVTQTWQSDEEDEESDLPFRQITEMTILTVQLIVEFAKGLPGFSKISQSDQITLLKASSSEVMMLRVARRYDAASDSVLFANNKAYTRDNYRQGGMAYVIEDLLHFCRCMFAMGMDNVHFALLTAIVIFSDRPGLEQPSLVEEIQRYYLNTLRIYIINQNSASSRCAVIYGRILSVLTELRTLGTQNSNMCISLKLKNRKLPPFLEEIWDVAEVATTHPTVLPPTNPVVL
Sequence (P19793 whole entry partner, the tested form may be a part): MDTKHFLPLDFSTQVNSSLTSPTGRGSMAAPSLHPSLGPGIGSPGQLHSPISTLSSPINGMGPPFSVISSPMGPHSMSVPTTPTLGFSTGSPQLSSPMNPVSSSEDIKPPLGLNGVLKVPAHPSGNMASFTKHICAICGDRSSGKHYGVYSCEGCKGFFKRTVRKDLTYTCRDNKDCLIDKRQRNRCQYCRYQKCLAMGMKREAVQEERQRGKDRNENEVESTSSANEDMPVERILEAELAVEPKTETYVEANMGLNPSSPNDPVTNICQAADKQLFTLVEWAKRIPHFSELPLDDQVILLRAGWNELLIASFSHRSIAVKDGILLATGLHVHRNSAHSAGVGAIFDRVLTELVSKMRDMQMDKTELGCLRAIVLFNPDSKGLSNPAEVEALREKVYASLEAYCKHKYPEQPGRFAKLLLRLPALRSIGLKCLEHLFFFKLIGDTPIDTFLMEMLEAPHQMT
assay comment: Z3 Assay (HEK-293 cells with CVBE and 6XEcRE LacZ, β-galactosidase reporter)
Would you kindly list EC50 for each of these compounds?
State just the number; it will be interpreted in µM.

Which EC50 is listed for CCc1c(C(=O)NN(C(=O)c2cc(C)cc(Cl)c2)C(C)(C)C)ccc2c1OCCO2 [RG-101494] ?
0.079

Please give the result for CCc1c(OC)cccc1C(=O)NN(C(=O)c1cc(C)cc(C)c1)C(C)(C)C=NO [RG-115258] too.
0.646

Please give the result for CCC(N(NC(=O)c1cccc(OC)c1C)C(=O)c1cc(OC)c(C)c(OC)c1)C(C)(C)C (centres unmarked) [RG-115820] too.
0.203

Please give the result for COc1cccc(C(=O)NN(C(=O)c2cc(Cl)c(F)c(Cl)c2)C(C)(C)C)c1C [RG-101382] too.
0.066

Please give the result for CCc1ccc(C(=O)NN(C(=O)c2cc(C)cc(C)c2)C(C)(C)C)cc1 [RG-102125] too.
0.174

* * *

System: mutated ecdysone receptor-based gene switch
assay comment: In vivo SEAP induction, ligand by IP injection
Parameters: species or system C57BL/6 mouse
condition parameters: mouse serum, IP 2.6 μmol ligand, day 11 after ligand
Would you kindly list Secreted Alkaline Phosphatase (percentage of GS ™-E ligand induction) Day 11 for each of these compounds?

Which Secreted Alkaline Phosphatase (percentage of GS ™-E ligand induction) Day 11 is listed for Cc1cc(C)cc(C(=O)N(NC(=O)c2ccc3c(c2C)OCCO3)C(C)(C)C)c1 [RG-102317] ?
61 percentage of GS ™-E ligand induction

Please give the result for Cc1c(C(=O)NN(C(=O)c2cc(F)c(F)c(F)c2)C(C)(C)C)ccc2c1CCCO2 [RG-115575] too.
69 percentage of GS ™-E ligand induction

* * *

system under test: Bombyx mori EcR (VP16 fusion, CVBE switch construct) (Bombyx mori, UniProt P49881)
assay comment: Z3 Assay (HEK-293 cells with CVBE and 6XEcRE LacZ, β-galactosidase reporter)
condition parameters: maximum fold induction at any concentration relative to that of GS-E ligand; HEK-293 Z3 cells
Answer F if Z3 assay Rel Max FI is under 0.8, and T if it is 0.8 or more.

Please tell me: is the molecule COc1cc(C(=O)N(NC(=O)c2cccc(OC)c2C)C(C)(C)C)ccc1C at or over 0.8 in terms of Z3 assay Rel Max FI?
T

Please give the result for CCc1c(OC)cccc1C(=O)NN(C(=O)c1ccc(F)cc1)C(C)(C)C too.
T

Please give the result for CCc1c(C(=O)NN(C(=O)c2ccccc2OC)C(C)(C)C)ccc2c1OCO2 too.
T

Please give the result for CCc1c(OC)cccc1C(=O)NN(C(=O)c1cc(OC)c(OC)c(OC)c1)C(C)(C)C too.
T

Please give the result for COc1cccc(C(=O)NN(C(=O)c2cc(C)cc(C)c2)C(C)(C)C)c1[N+](=O)[O-] too.
T

Please give the result for Cc1cc(C)cc(C(=O)N(NC(=O)c2ccc3c(c2Br)OCCO3)C(C)(C)C)c1 too.
T

Please give the result for CCc1c(OC)cccc1C(=O)NN(C(=O)c1cc(C)cc(C)c1)C(C)(C)CO[Si](C)(C)C(C)(C)C too.
F

Please give the result for CCc1c(OC)cccc1C(=O)NN(C(=O)c1cccc(Br)c1)C(C)(C)C too.
T

Please give the result for CCc1c(OC)cccc1C(=O)NN(C(=O)c1ccccc1S(=O)(=O)O)C(C)(C)C too.
F

Please give the result for COc1cccc(C(=O)NN(C(=O)c2cc(C)cc(C)c2)C(C)(C)C)c1CF too.
F

Please give the result for COc1cccc(C(=O)NN(C(=O)c2cc(C)cc(C)c2)C(C)(C)C)c1COC(C)=O too.
F

Please give the result for COc1cc(C(=O)N(NC(=O)c2ccc3c(c2C)OCCO3)C(C)(C)C)c([N+](=O)[O-])c(OC)c1C too.
F

Please give the result for CCc1c(OC)cccc1C(=O)NN(C(=O)c1cc(OC)c(OC(C)=O)c(OC)c1)C(C)(C)C too.
T

Please give the result for CCc1ccc(C(=O)NN(C(=O)c2ccccc2CC)C(C)(C)C)cc1 too.
F

Please give the result for CCc1ccc(C(=O)NN(C(=O)c2cc(F)c(F)c(F)c2)C(C)(C)C)c(F)c1 too.
F

Please give the result for COc1cccc(C(=O)NN(C(=O)c2cc(C)cc(C)c2)C(C)(C)C)c1C[S+](C)[O-] (stereo not drawn) too.
F

Please give the result for COc1ccccc1C(=O)N(NC(=O)c1ccc2c(c1C)CCCO2)C(C)(C)C too.
T

Please give the result for CCCC(N(NC(=O)c1cccc(OC)c1C)C(=O)c1cc(C)cc(C)c1)C(C)(C)C (stereo not drawn) too.
T

Please give the result for CCC(N(NC(=O)c1cccc(OC)c1C)C(=O)c1cc(OC)c(C)c(OC)c1)C(C)(C)C (stereo not drawn) too.
T

Please give the result for CC(=O)Oc1cccc(C(=O)NN(C(=O)c2cc(C)cc(C)c2)C(C)(C)C)c1C too.
T

Please give the result for CCCCC(CC)N(NC(=O)c1cccc(C)c1C)C(=O)c1ccccc1 (racemic) too.
T

Please give the result for Cc1c(C(=O)NN(C(=O)c2cc(F)c(F)c(F)c2F)C(C)(C)C)ccc2c1CCCO2 too.
T

Please give the result for CCc1c(OC)cccc1C(=O)NN(C(=O)c1cc(C)cc(C)c1)C(C)(C)C(=O)O too.
T

Please give the result for CCc1c(OC)cccc1C(=O)NN(C(=O)c1cccc(F)c1F)C(C)(C)C too.
T

Please give the result for CCc1ccc(C(=O)NN(C(=O)c2cc(C)c(Cl)c(C)c2)C(C)(C)C)cc1 too.
T

Please give the result for CCc1c(C(=O)NN(C(=O)c2ccccc2OC)C(C)(C)C)ccc2c1OCCO2 [RG-115244] too.
T

Please give the result for Cc1cc(C)cc(C(=O)N(NC(=O)c2cccc([N+](=O)[O-])c2C)C(C)(C)C)c1 too.
T

Please give the result for CCc1c(OC)cccc1C(=O)NN(C(=O)c1cc(C)cc(COC(C)=O)c1)C(C)(C)C too.
T

Please give the result for COc1ccc(C(=O)N(NC(=O)c2ccc3c(c2C)OCCO3)C(C)(C)C)c(OC)n1 too.
T

Please give the result for CCc1cccc(C(=O)NN(C(=O)c2cc(C)cc(C)c2)C(C)(C)C)c1C too.
T

Please give the result for CCc1ccc(C(=O)NN(C(=O)c2cc(C)nc(Cl)c2)C(C)(C)C)c(F)c1 too.
F

Please give the result for COc1cccc(C(=O)NN(C(=O)c2cc(C)cc(C)c2)C(C)(C)C)c1CO too.
F

Please give the result for CCc1c(OC)cccc1C(=O)NN(C(=O)c1cc(C)cc(C)c1)C(C)(C)CO too.
T

* * *

Would you kindly list Papp, A-to-B Rep. 1 for each of these compounds?
Test system: Caco-2 monolayers
assay comment: Bi-directional permeability, CACO-2
Format: in vitro ADME
condition parameters: Caco-2

Which Papp, A-to-B Rep. 1 is listed for CCc1c(OC)cccc1C(=O)NN(C(=O)c1ccccc1[S+](C)[O-])C(C)(C)C (stereo not shown) [RG-115199] ?
31.1 10^−6 cm/s

Please give the result for CC(=O)c1ccc(C(=O)NN(C(=O)c2cc(C(=O)O)cc(C(=O)O)c2)C(C)(C)C)cc1 [RG-100150] too.
0.19 10^−6 cm/s

Please give the result for CC(O)c1ccc(C(=O)NN(C(=O)c2cc(CO)cc(CO)c2)C(C)(C)C)cc1 (stereo not shown) [RG-100021] too.
0.21 10^−6 cm/s

Please give the result for COc1cnccc1C(=O)N(NC(=O)c1cccc(O)c1C)C(C)(C)C [RG-115595] too.
19.6 10^−6 cm/s

Please give the result for CCc1c(C(=O)NN(C(=O)c2ccc(F)c(C(F)(F)F)c2)C(C)(C)C)ccc2c1OCCO2 [RG-115280] too.
1.24 10^−6 cm/s

Please give the result for CCCC(N(NC(=O)c1cccc(OC)c1C)C(=O)c1cc(C)cc(C)c1)C(C)(C)C (stereo not shown) [RG-115823] too.
17.4 10^−6 cm/s

Please give the result for CCc1c(OC)cccc1C(=O)NN(C(=O)c1ccccc1S(=O)(=O)O)C(C)(C)C [RG-115555] too.
0.18 10^−6 cm/s
